assay: Stability in cynomolgus monkey fecal homogenate (anaerobic); assay type: in vitro ADME; conditions: pH 6.8, 20% cynomolgus monkey fecal homogenate, 37° C., up to 24 hours, read-out: t1/2: Monkey Feces anaerobic (converted)
*1 amine or outer side, *2 acyl side, *3 side chain or, on linkers, in order; H or OH if unused. Where a SMILES comes first, the peptide text is derived from it. Bridges are numbered along the chain shown (N, C = ends). [ ]: non-standard residue; d: D form. X6 = O=C([C@H](Cc1c[nH]c2c(-c3cccc(OC(F)(F)F)c3)cccc12)N[*:1])[*:2]; X2 = O=C([C@H](Cc1c[nH]c2c(-c3ccc(F)cc3)cccc12)N[*:1])[*:2]; X3 = Cc1cccc(-c2cccc3c(C[C@H](N[*:1])C(=O)[*:2])c[nH]c23)c1; Trp(7-Ph) = N[C@@H](Cc1c[nH]c2c(-c3ccccc3)cccc12)C(=O)O; Abu(4-yl) = O=C([C@H](CC[*:3])N[*:1])[*:2]; 2Nal = N[C@@H](Cc1ccc2ccccc2c1)C(=O)O; AEF = NCCOc1ccc(C[C@H](N)C(=O)O)cc1; Pen = CC(C)(S)[C@H](N)C(=O)O; αMeK = C[C@](N)(CCCCN)C(=O)O
measured_endpoint: half-life at 20 μM

// lookup half-life at 20 μM for CC(=O)NCCCC[C@@H]1NC(=O)[C@H](Cc2c[nH]c3c(-c4cccc(C)c4)cccc23)NC(=O)[C@H]([C@@H](C)O)NC(=O)[C@H](CC(N)=O)NC(=O)[C@@H](NC(C)=O)C(C)(C)SSC(C)(C)[C@@H](C(=O)N[C@@H](Cc2ccc(OCCN)cc2)C(=O)N[C@@H](Cc2ccc3ccccc3c2)C(=O)N[C@@](C)(CCCCN)C(=O)N[C@@H](CCCCNC(C)=O)C(=O)N[C@@H](CC(N)=O)C(=O)N[C@H](CCCCN)C(N)=O)NC1=O [Peptide 7] (Ac-[Pen]NT[X3]K(Ac)[Pen][AEF][2Nal][αMeK]K(Ac)N[dK]-NH2; disulfide 1-6)
> 24 h

Which half-life at 20 μM is reported for this molecule? CC(=O)NCCCC[C@@H]1NC(=O)[C@H](Cc2c[nH]c3c(-c4ccccc4)cccc23)NC(=O)[C@H]([C@@H](C)O)NC(=O)[C@H](CC(N)=O)NC(=O)[C@@H](NC(C)=O)C(C)(C)SSC(C)(C)[C@@H](C(=O)N[C@@H](Cc2ccc(OCCN)cc2)C(=O)N[C@@H](Cc2ccc3ccccc3c2)C(=O)N[C@@](C)(CCCCN)C(=O)N[C@@H](CCCCNC(C)=O)C(=O)N[C@@H](CC(N)=O)C(=O)N[C@H](CC(C)C)C(N)=O)NC1=O [Peptide 1]
> 24 h

Quick check: half-life at 20 μM of CC(=O)NCCCC[C@@H]1NC(=O)[C@H](Cc2c[nH]c3c(-c4ccc(F)cc4)cccc23)NC(=O)[C@H]([C@@H](C)O)NC(=O)[C@H](CC(N)=O)NC(=O)[C@@H](NC(C)=O)C(C)(C)SSC(C)(C)[C@@H](C(=O)N[C@@H](Cc2ccc(OCCN)cc2)C(=O)N[C@@H](Cc2ccc3ccccc3c2)C(=O)N[C@@](C)(CCCCN)C(=O)N[C@@H](CCCCNC(C)=O)C(=O)N[C@@H](CC(N)=O)C(=O)N[C@H](CCCCN)C(N)=O)NC1=O [Peptide 10] (Ac-[Pen]NT[X2]K(Ac)[Pen][AEF][2Nal][αMeK]K(Ac)N[dK]-NH2; disulfide 1-6) ?
> 24 h

What measured half-life at 20 μM goes with CC(=O)NCCCC[C@@H]1NC(=O)[C@H](Cc2c[nH]c3c(-c4cccc(OC(F)(F)F)c4)cccc23)NC(=O)[C@H]([C@@H](C)O)NC(=O)[C@H](CC(N)=O)NC(=O)[C@@H](NC(C)=O)C(C)(C)SSC(C)(C)[C@@H](C(=O)N[C@@H](Cc2ccc(OCCN)cc2)C(=O)N[C@@H](Cc2ccc3ccccc3c2)C(=O)N[C@@](C)(CCCCN)C(=O)N[C@@H](CCCCNC(C)=O)C(=O)N[C@@H](CC(N)=O)C(=O)N[C@H](CCCCN)C(N)=O)NC1=O [Peptide 12] (Ac-[Pen]NT[X6]K(Ac)[Pen][AEF][2Nal][αMeK]K(Ac)N[dK]-NH2; disulfide 1-6) ?
> 6 h

// query half-life at 20 μM value for entry CC(=O)NCCCC[C@@H]1NC(=O)[C@H](Cc2c[nH]c3c(-c4ccccc4)cccc23)NC(=O)[C@H]([C@@H](C)O)NC(=O)[C@H](CCC(N)=O)NC(=O)[C@@H](NC(=O)[C@@H](CCCNC(=N)N)NC(C)=O)CCSC[C@@H](C(=O)N[C@@H](Cc2ccc(OCCN)cc2)C(=O)N[C@@H](Cc2ccc3ccccc3c2)C(=O)N[C@@](C)(CCCCN)C(=O)N[C@@H](CCCCNC(C)=O)C(=O)N[C@@H](CC(N)=O)C(N)=O)NC1=O [Peptide 4] (Ac-[dR][Abu(4-yl)]QT[Trp(7-Ph)]K(Ac)C[AEF][2Nal][αMeK]K(Ac)N-NH2; thioether 2-7)
14.1 h

Data origin: patent US20230129095A1
